Reference source: ChEMBL document CHEMBL6134830

- System: Acinetobacter baumannii
- assay: Antimicrobial activity against Acinetobacter baumannii ATCC 19606 assessed as inhibition of bacterial growth measured after 20 hrs by CLSI protocol based Muller Hinton broth assay
- Format: functional
Numbered stars: 1 amine (or outer) side, 2 acyl side, 3 side chain; on linkers, the order of the positions; unused ones are H or OH. Peptide text beside a SMILES is read from it. * marks the point of attachment. X1 = O=C(O)c1cn(C2CC2)c2cc(N3CCN(*)CC3)c(F)cc2c1=O; NH(CH2)11CH3 = CCCCCCCCCCCCN*; Suc = O=C(CCC(=O)[*:2])[*:1]
// reported MIC for each item listed

{"molecule": "CCCCCCCCCNC(=O)[C@H](CCCCN)NC(=O)[C@H](CCCNC(=N)N)NC(=O)[C@H](CCCCN)NC(=O)c1ccc(C(=O)N2CCN(c3cc4c(cc3F)c(=O)c(C(=O)O)cn4C3CC3)CC2)cc1", "MIC": "6.25 µg/mL"}
{"molecule": "CCCCCCCCCCCCNC(=O)[C@H](CCCCN)NC(=O)[C@H](CCCCN)NC(=O)[C@H](CCCCN)NC(=O)CCCCCCCCCCCNC(=O)CCC(=O)N1CCN(c2cc3c(cc2F)c(=O)c(C(=O)O)cn3C2CC2)CC1", "MIC": "6.25 µg/mL"}
{"molecule": "CCCCCCCCCCCCNC(=O)[C@H](CCCCN)NC(=O)[C@H](CCCCN)NC(=O)[C@H](CCCCN)NC(=O)[C@H](CO)NC(=O)CCC(=O)N1CCN(c2cc3c(cc2F)c(=O)c(C(=O)O)cn3C2CC2)CC1 ({X1-Suc}-SKKK-{NH(CH2)11CH3})", "MIC": "12.5 µg/mL"}
{"molecule": "NCCCC[C@H](NC(=O)c1ccc(C(=O)N2CCN(c3cc4c(cc3F)c(=O)c(C(=O)O)cn4C3CC3)CC2)cc1)C(=O)N[C@@H](CCCCN)C(=O)N[C@@H](CCCCN)C(=O)NCc1ccc(-c2ccccc2)cc1", "MIC": "25 µg/mL"}

----------
- System: Enterococcus gallinarum
- assay: Antimicrobial activity against Enterococcus gallinarum ATCC 49573 assessed as inhibition of bacterial growth measured after 20 hrs by CLSI protocol based Muller Hinton broth assay
- Type: functional
Numbered stars: 1 amine (or outer) side, 2 acyl side, 3 side chain; on linkers, the order of the positions; unused ones are H or OH. Peptide text beside a SMILES is read from it. * marks the point of attachment. X1 = O=C(O)c1cn(C2CC2)c2cc(N3CCN(*)CC3)c(F)cc2c1=O; NH(CH2)11CH3 = CCCCCCCCCCCCN*; Suc = O=C(CCC(=O)[*:2])[*:1]
Catalogue of MIC readings, one per entry.

{"compound": "CCCCCCCCCCCCNC(=O)[C@H](CCCCN)NC(=O)[C@H](CCCCN)NC(=O)[C@H](CCCCN)NC(=O)CCCCCCCCCCCNC(=O)CCC(=O)N1CCN(c2cc3c(cc2F)c(=O)c(C(=O)O)cn3C2CC2)CC1", "quantityUnit": "µg/mL", "MIC": 6.25}
{"compound": "NCCCC[C@H](NC(=O)c1ccc(C(=O)N2CCN(c3cc4c(cc3F)c(=O)c(C(=O)O)cn4C3CC3)CC2)cc1)C(=O)N[C@@H](CCCCN)C(=O)N[C@@H](CCCCN)C(=O)NCc1ccc(-c2ccccc2)cc1", "quantityUnit": "µg/mL", "MIC": 50}
{"compound": "CCCCCCCCCCCCNC(=O)[C@H](CCCCN)NC(=O)[C@H](CCCCN)NC(=O)[C@H](CCCCN)NC(=O)[C@H](CO)NC(=O)CCC(=O)N1CCN(c2cc3c(cc2F)c(=O)c(C(=O)O)cn3C2CC2)CC1 ({X1-Suc}-SKKK-{NH(CH2)11CH3})", "quantityUnit": "µg/mL", "MIC": 25}
{"compound": "CCCCCCCCCNC(=O)[C@H](CCCCN)NC(=O)[C@H](CCCNC(=N)N)NC(=O)[C@H](CCCCN)NC(=O)c1ccc(C(=O)N2CCN(c3cc4c(cc3F)c(=O)c(C(=O)O)cn4C3CC3)CC2)cc1", "quantityUnit": "µg/mL", "MIC": 12.5}

----------
Reported MIC by item:
- System: Escherichia coli
- assay: Antimicrobial activity against Escherichia coli ATCC 25922 assessed as inhibition of bacterial growth measured after 20 hrs by CLSI protocol based Muller Hinton broth assay
- Format: functional
Numbered stars: 1 amine (or outer) side, 2 acyl side, 3 side chain; on linkers, the order of the positions; unused ones are H or OH. Peptide text beside a SMILES is read from it. * marks the point of attachment. X1 = O=C(O)c1cn(C2CC2)c2cc(N3CCN(*)CC3)c(F)cc2c1=O; NH(CH2)11CH3 = CCCCCCCCCCCCN*; Suc = O=C(CCC(=O)[*:2])[*:1]

{"compound": "CCCCCCCCCCCCNC(=O)[C@H](CCCCN)NC(=O)[C@H](CCCCN)NC(=O)[C@H](CCCCN)NC(=O)CCCCCCCCCCCNC(=O)CCC(=O)N1CCN(c2cc3c(cc2F)c(=O)c(C(=O)O)cn3C2CC2)CC1", "MIC": "12.5 µg/mL"}
{"compound": "CCCCCCCCCNC(=O)[C@H](CCCCN)NC(=O)[C@H](CCCNC(=N)N)NC(=O)[C@H](CCCCN)NC(=O)c1ccc(C(=O)N2CCN(c3cc4c(cc3F)c(=O)c(C(=O)O)cn4C3CC3)CC2)cc1", "MIC": "3.12 µg/mL"}
{"compound": "CCCCCCCCCCCCNC(=O)[C@H](CCCCN)NC(=O)[C@H](CCCCN)NC(=O)[C@H](CCCCN)NC(=O)[C@H](CO)NC(=O)CCC(=O)N1CCN(c2cc3c(cc2F)c(=O)c(C(=O)O)cn3C2CC2)CC1 ({X1-Suc}-SKKK-{NH(CH2)11CH3})", "MIC": "25 µg/mL"}
{"compound": "NCCCC[C@H](NC(=O)c1ccc(C(=O)N2CCN(c3cc4c(cc3F)c(=O)c(C(=O)O)cn4C3CC3)CC2)cc1)C(=O)N[C@@H](CCCCN)C(=O)N[C@@H](CCCCN)C(=O)NCc1ccc(-c2ccccc2)cc1", "MIC": "25 µg/mL"}
